- Measured On: human TLR7 (Homo sapiens, UniProt Q9NYK1)
- Sequence (Q9NYK1 27-1049): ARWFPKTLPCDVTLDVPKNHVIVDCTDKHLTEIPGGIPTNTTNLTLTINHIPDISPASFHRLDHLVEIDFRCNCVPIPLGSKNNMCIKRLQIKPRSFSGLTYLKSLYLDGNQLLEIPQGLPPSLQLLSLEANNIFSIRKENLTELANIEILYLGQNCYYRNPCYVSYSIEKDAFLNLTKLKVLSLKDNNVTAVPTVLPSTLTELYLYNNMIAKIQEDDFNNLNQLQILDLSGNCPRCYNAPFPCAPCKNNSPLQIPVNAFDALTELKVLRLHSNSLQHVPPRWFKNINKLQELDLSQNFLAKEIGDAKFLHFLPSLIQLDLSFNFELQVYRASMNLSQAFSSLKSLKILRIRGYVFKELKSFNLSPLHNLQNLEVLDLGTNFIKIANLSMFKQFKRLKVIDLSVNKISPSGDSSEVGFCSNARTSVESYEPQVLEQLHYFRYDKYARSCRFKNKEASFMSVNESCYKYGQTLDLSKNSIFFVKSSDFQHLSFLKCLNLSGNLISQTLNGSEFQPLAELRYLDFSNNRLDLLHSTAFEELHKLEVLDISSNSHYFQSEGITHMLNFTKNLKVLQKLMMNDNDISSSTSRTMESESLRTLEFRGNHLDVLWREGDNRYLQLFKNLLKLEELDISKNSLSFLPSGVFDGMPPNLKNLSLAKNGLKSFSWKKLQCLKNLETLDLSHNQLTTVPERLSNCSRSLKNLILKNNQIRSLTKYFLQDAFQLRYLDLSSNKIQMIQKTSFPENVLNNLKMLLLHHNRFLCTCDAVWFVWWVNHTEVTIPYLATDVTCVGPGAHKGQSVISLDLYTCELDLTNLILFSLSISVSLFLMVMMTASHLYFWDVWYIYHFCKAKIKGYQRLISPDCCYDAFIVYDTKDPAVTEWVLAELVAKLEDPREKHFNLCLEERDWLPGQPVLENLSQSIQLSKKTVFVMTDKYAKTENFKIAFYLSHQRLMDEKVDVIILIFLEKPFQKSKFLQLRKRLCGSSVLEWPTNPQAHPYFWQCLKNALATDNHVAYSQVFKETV
- Experiment: TLR7 inhibition reporter assay (HEK-Blue, SEAP)
- Measurement Setup: HEK-Blue cells overexpressing human TLR7, gardiquimod 7.5 μM, 22 hour incubation
Listed below: log10(IC50) values for each entry.
log10 IC50, nM

Study these solved cases before continuing.
Molecule: Cc1c(-c2[nH]c3ccc(C4CCNCC4)cc3c2C(C)C)cn2cnnc2c1Cl
Reported Endpoint: log10(IC50)
Result Value: 0.66

Molecule: Cc1c(-c2[nH]c3ccc(C4CCN(C(C)C)CC4)cc3c2C(C)C)cn2cnnc2c1C
Reported Endpoint: log10(IC50)
Result Value: 0.23

Molecule: Cc1nnc2ccc(-c3[nH]c4ccc(C5CCN(CC(=O)N(C)C)CC5)cc4c3C(C)C)cn12
Reported Endpoint: log10(IC50)
Result Value: 1.69

Identify measured log10(IC50) corresponding to Cc1cc(-c2[nH]c3ccc(C4CCN(CCS(C)(=O)=O)CC4)cc3c2C(C)C)cn2cnnc12 -0.15

Identify measured log10(IC50) corresponding to Cc1c(-c2[nH]c3ccc(C4CCNCC4)cc3c2C(C)C)ccc2nncn12 2.19

Identify measured log10(IC50) corresponding to Cc1cc(-c2[nH]c3ccc(C4CCN(Cc5ncn(C)n5)CC4)cc3c2C(C)C)cn2cnnc12 0.59

Identify measured log10(IC50) corresponding to CNC(=O)CN1CCC(c2ccc3[nH]c(-c4cc(C)c5nncn5c4)c(C(C)C)c3c2)CC1 0.30

Identify measured log10(IC50) corresponding to Cc1cc2nncn2cc1-c1[nH]c2ccc(C3CCN(C4COC4)CC3)cc2c1C(C)C 1.74

Identify measured log10(IC50) corresponding to Cc1c(-c2[nH]c3ccc(C4C[C@H]5CC[C@@H](C4)N5C4COC4)cc3c2C(C)C)cn2cnnc2c1C (single isomer, unassigned) [Example 122] 0.36

Identify measured log10(IC50) corresponding to CC(C)c1c(-c2ccc3nncn3c2)[nH]c2ccc(C3CCN(C4COC4)CC3)cc12 1.34

Identify measured log10(IC50) corresponding to Cc1c(-c2[nH]c3ccc(C4CCN(C5CCOC(C)(C)C5)CC4)cc3c2C(C)C)cn2cnnc2c1C (stereo not drawn) 0.40

Identify measured log10(IC50) corresponding to Cc1c(-c2[nH]c3ccc(C4CCN(C5COC5)CC4)cc3c2C(C)C)cn2cnnc2c1C 0.52

Identify measured log10(IC50) corresponding to Cc1c(-c2[nH]c3ccc(C4C[C@H]5CC[C@@H](C4)N5CC(=O)N(C)C)cc3c2C(C)C)cn2cnnc2c1C (single isomer, unassigned) [Example 118] 0.94

Identify measured log10(IC50) corresponding to Cc1cc2nncn2cc1-c1[nH]c2ccc(C3CCN(C4CCOCC4)CC3)cc2c1C(C)C 1.32

Identify measured log10(IC50) corresponding to COc1cc(-c2[nH]c3ccc(C4CCN(C5CCOC5)CC4)cc3c2C(C)C)cn2cnnc12 (stereo not drawn) -0.22

Hello, the source for this data is patent US11130756B2, in case you need it.
